- Subject Of Test: human IL-23R (Homo sapiens, UniProt Q5VWK5)
- Protocol Summary: biochemical
*1 amine or outer side, *2 acyl side, *3 side chain or, on linkers, in order; H or OH if unused. Where a SMILES comes first, the peptide text is derived from it. Bridges are numbered along the chain shown (N, C = ends). [ ]: non-standard residue; d: D form. 2Nal = N[C@@H](Cc1ccc2ccccc2c1)C(=O)O; AEF = NCCOc1ccc(C[C@H](N)C(=O)O)cc1; X1 = O=C(Cc1ccc(CN[*:1])cc1)[*:2]; 3Pal = N[C@@H](Cc1cccnc1)C(=O)O; αMeL = CC(C)C[C@](C)(N)C(=O)O; CH2COCH2 = O=C(C[*:1])C[*:2]; Dab = NCC[C@H](N)C(=O)O
Measured Quantity: Ki (nM)
Reply numerically in nM, unit not repeated.

Compound	Measured Quantity	Unit Of Measure	Quantitative Result
CC(=O)N[C@H]1CCSC[C@@H](C(=O)N[C@@H](Cc2ccc(OCCN)cc2)C(=O)N[C@@H](Cc2c[nH]c3ccccc23)C(=O)N[C@@](C)(CCCCN)C(=O)N[C@@H](CCC(=O)O)C(=O)N[C@@H](CC(N)=O)C(=O)NCC(N)=O)NC(=O)[C@H](CCC(N)=O)NC(=O)[C@H](Cc2c[nH]c3ccccc23)NC(=O)[C@H]([C@@H](C)O)NC(=O)[C@H](CCC(N)=O)NC1=O [Compound C, reference compound]	Ki	nM	2.11
CC(C)C[C@]1(C)NC(=O)[C@H](Cc2ccc3ccccc3c2)NC(=O)[C@H](Cc2ccc(OCCN)cc2)NC(=O)[C@@H]2CSCC(=O)CSC[C@H](NC(=O)[C@H](CO)NC(=O)Cc3ccc(cc3)CNC(=O)CC[C@@H](C(=O)N[C@@H](CCN)C(N)=O)NC1=O)C(=O)N[C@@H](Cc1c[nH]c3ccccc13)C(=O)N[C@@H](CCC(N)=O)C(=O)N2 [Ref 82, reference compound] ([X1]SCWQC[AEF][2Nal][αMeL]E[Dab]-NH2; linker 3-6 via CH2COCH2; lactam N-10)	Ki	nM	0.0665
CC(C)C[C@]1(C)NC(=O)[C@H](Cc2ccc3ccccc3c2)NC(=O)[C@H](Cc2ccc(OCCN)cc2)NC(=O)[C@@H]2CSCC(=O)CSC[C@H](NC(=O)[C@H](CO)NC(=O)Cc3ccc(cc3)CNC(=O)CC[C@@H](C(=O)N[C@H](CCCNC(=N)N)C(N)=O)NC1=O)C(=O)N[C@@H](Cc1c[nH]c3ccccc13)C(=O)N[C@@H](CCC(N)=O)C(=O)N2 [Ref 80, reference compound] ([X1]SCWQC[AEF][2Nal][αMeL]E[dR]-NH2; linker 3-6 via CH2COCH2; lactam N-10)	Ki	nM	0.15

Record request: Ki value, item CC(=O)N[C@H]1CCCCNC(=O)CC[C@@H](C(=O)N[C@@H](CCN)C(=O)N[C@@H](Cc2cccnc2)C(N)=O)NC(=O)[C@](C)(CC(C)C)NC(=O)[C@H](Cc2ccc3ccccc3c2)NC(=O)[C@H](Cc2ccc(OCCN)cc2)NC(=O)[C@@H]2CSCC(=O)CSC[C@H](NC(=O)[C@H]([C@@H](C)O)NC1=O)C(=O)N[C@@H](Cc1c[nH]c3ccccc13)C(=O)N[C@@H](CCC(N)=O)C(=O)N2 [Ref 155, reference compound] (Ac-KTCWQC[AEF][2Nal][αMeL]E[Dab][3Pal]-NH2; lactam 1-10; linker 3-6 via CH2COCH2)
0.00805

Data credit: patent EP4471048A1
